B1: 2K2A (parent)
chain: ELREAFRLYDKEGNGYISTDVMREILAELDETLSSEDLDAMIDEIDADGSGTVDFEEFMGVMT

variants of: B1; assay: folding stability dG (cDNA display proteolysis); higher = more stable; conditions: PBS, room temperature
# reported folding stability dG; entries follow
measured attribute: folding stability dG (kcal/mol)

>>> print(df.to_string())
    variant_key  recorded_result
 0         G60K             2.69
 1         A47I             1.86
 2         E36H             1.65
 3         T19C             1.39
 4         M59W              1.4
 5          L8W             1.83
 6         E24R             2.58
 7          E1Y             2.41
 8         G51F            0.853
 9          A5P             0.29
10         I42E           -0.498
11         D10I             1.21
12         D37N             1.32
13         E36C             1.85
14         A47R             2.06
15          R7N             2.06
16         G60Y             2.57
17          L2S            0.529
18         D39W             1.22
19         D37M             1.96
20         D10R           -0.527
21         E31I             1.93
